- Test system: Streptococcus pneumoniae
- TEST_DESCRIPTION: Antimicrobial activity against beta-lactam resistant Streptococcus pneumoniae clinical isolate by broth dilution method
- Type: functional
Reported log10(MIC90) by item:
Answers are given as log10 of MIC90 in µg/mL.

Please give measured log10(MIC90) of the following entry: Nc1nc(/C(=N/O)C(=O)N[C@@H]2C(=O)N3C(C(=O)O)=C(/C=C4\CCN([C@@H]5CCNC5)C4=O)CS[C@H]23)ns1
-0.30

Continuing:
Please give measured log10(MIC90) of the following entry: C[C@H]1COc2c(N3CCN(C)CC3)c(F)cc3c(=O)c(C(=O)O)cn1c23.C[C@H]1COc2c(N3CCN(C)CC3)c(F)cc3c(=O)c(C(=O)O)cn1c23.O
0.00

Please give measured log10(MIC90) of the following entry: CN(C)c1cc(NC(=O)CNC(C)(C)C)c(O)c2c1C[C@H]1C[C@H]3[C@H](N(C)C)C(O)=C(C(N)=O)C(=O)[C@@]3(O)C(O)=C1C2=O
-1.52

Please give measured log10(MIC90) of the following entry: CC1(C)S[C@@H]2[C@H](NC(=O)Cc3ccccc3)C(=O)N2[C@H]1C(=O)O
0.30

Please give measured log10(MIC90) of the following entry: CCCCCCCCCC(=O)N[C@@H](Cc1c[nH]c2ccccc12)C(=O)N[C@H](CC(N)=O)C(=O)N[C@@H](CC(=O)O)C(=O)N[C@@H]1C(=O)NCC(=O)N[C@@H](CCCN)C(=O)N[C@@H](CC(=O)O)C(=O)N[C@H](C)C(=O)N[C@@H](CC(=O)O)C(=O)NCC(=O)N[C@H](CO)C(=O)N[C@@H]([C@H](C)CC(=O)O)C(=O)N[C@@H](CC(=O)c2ccccc2N)C(=O)O[C@@H]1C
-1.22

Hello, the source for this data is ChEMBL document CHEMBL1255371, in case you need it.
